# study_system: Duffy Antigen Receptor for Chemokines (DARC) (human) (UniProt Q16570)
# Sequence (Q16570 whole entry): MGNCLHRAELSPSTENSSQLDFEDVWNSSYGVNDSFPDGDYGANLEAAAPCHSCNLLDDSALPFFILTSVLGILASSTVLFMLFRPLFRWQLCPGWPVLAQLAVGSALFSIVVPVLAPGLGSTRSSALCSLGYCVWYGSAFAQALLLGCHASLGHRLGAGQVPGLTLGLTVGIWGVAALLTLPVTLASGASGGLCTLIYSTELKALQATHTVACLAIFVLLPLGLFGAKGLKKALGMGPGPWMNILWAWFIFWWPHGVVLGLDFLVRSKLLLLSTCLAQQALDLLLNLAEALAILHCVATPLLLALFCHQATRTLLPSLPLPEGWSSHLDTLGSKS
# assay_info: DARC binding, red blood cells (given as association constant)
No end group written: not given here.
reported_metric: pKd
# log scale: pKd equals minus log10 of the concentration in mol/L

Prompt line: What value of measured pKd is listed for CQIWKQKPDLC (not fully specified (some residues, bridges); cysteine pairing not given here) [CRD-Cys13Leu4Ile11 peptide 3(3-12)[MCP-1]] ?
Response line: 4.05
